meta.source: ChEMBL document CHEMBL1687817

Assay: Volume of distribution in central compartment in patient with community or hospital-acquired pneumonia at […], iv loading dose followed by […] administered every 12 hrs
Format: ADME, organism-based
Details: human, in vivo, read-out: Vc
quantity kind: Vd (L)
Report the value in L with no unit label.

Record CN(C)c1cc(NC(=O)CNC(C)(C)C)c(O)c2c1C[C@H]1C[C@H]3[C@H](N(C)C)C(O)=C(C(N)=O)C(=O)[C@@]3(O)C(O)=C1C2=O [TIGECYCLINE] , field Vd: 65.2

---

Test: Clearance in patient with community or hospital-acquired pneumonia at […], iv loading dose followed by […] administered every 12 hrs
Assay type: ADME, organism-based
Conditions: human, in vivo
quantity kind: clearance

CN(C)c1cc(NC(=O)CNC(C)(C)C)c(O)c2c1C[C@H]1C[C@H]3[C@H](N(C)C)C(O)=C(C(N)=O)C(=O)[C@@]3(O)C(O)=C1C2=O yielded clearance of 320 mL/min
